Tested on: TK-10 renal
Test: NCI-60 one-dose screen, 48 h (100 = growth as untreated, 0 = no growth, -100 = all killed)
Details: 10 µM
The panel holds about 83,000 compounds, 20% with a hit somewhere; the sample as a whole holds those more often.
Measurement Type: growth (%)

Compound	Measurement Type	U	Reported Value
CCCN1CN2C(=O)N3CN(CCC)CN4C(=S)N(C1)C2C34 (configuration not stated)	growth	%	93.2
O=C1Cc2cc(CCN3CCN(c4nsc5ccccc45)CC3)c(Cl)cc2N1	growth	%	104
NC(N)=N/N=C(\N=Nc1ccccc1)c1ccc(Cl)cc1	growth	%	65.8
COc1ccccc1-n1c(-c2sc(NC(C)=O)nc2C)n[nH]c1=S	growth	%	130
CCOC(=O)c1cc(C(=O)c2ccc(F)cc2F)n2ccccc12	growth	%	115
COc1cc(/C=C/c2cc(/C=C/c3ccc(O)c(OC)c3)[nH]c(=O)n2)ccc1O	growth	%	103
CN(C)c1ccc(/C=N/NC(=O)c2cccc3ccccc23)c(Cl)c1	growth	%	63.8
O=C(Nc1cccc2c1CCCC2)c1cc2ccccc2cc1O	growth	%	88.1
CCCCC1(O)CCCCC1	growth	%	94.3
Cc1c(Cl)cccc1NC(=O)CCCl	growth	%	89.3
COc1ccc2nc3cc(Cl)ccc3c(N)c2c1	growth	%	-68.7
CCn1cc(CNc2ccc(C(=O)Nc3ccc4ccccc4c3)cc2)c(C)n1	growth	%	1.78

---

Tested on: OVCAR-4 ovarian
Assay: NCI-60 one-dose screen, 48 h
Conditions: 10 µM
Compounds without any hit were thinned out: in the full panel of roughly 83,000, 20% have a hit. Calls of active or inactive are those of the source. Rule for the calls: active = growth percent below 10; inactive = the rest.
Labels: 1 (yes) (active), 0 (no) (inactive)

Compound	Test System	Answer Label
N#CC1=C(N)Oc2cc(N)ccc2C1c1cccnc1 (configuration not stated)	OVCAR-4 ovarian	0 (no)
O=C1/C(=C/c2ccc3c(c2)OCO3)SC(=S)N1C1c2ccccc2Oc2ccccc21	OVCAR-4 ovarian	0 (no)
COc1ccc2c(c1)C(=O)/C(=C/c1cccc(OCC(=O)c3ccc([N+](=O)[O-])cc3)c1)CO2	OVCAR-4 ovarian	0 (no)
CN1C(C(=O)Nc2ccccn2)=C(O)c2sc(Cl)cc2S1(=O)=O	OVCAR-4 ovarian	0 (no)
COc1cc2c3c(n(C4CCNCC4)c(=O)c2cc1OC)-c1cc2c(cc1C3=O)OCO2	OVCAR-4 ovarian	1 (yes)
Clc1ccc(/C=C2\CCCC3C2=Nc2ccccc2NC3c2ccc(Cl)cc2)cc1 (configuration not stated)	OVCAR-4 ovarian	0 (no)
NC1=NC(c2ccc(Cl)cc2)C2=C(N1)/C(=C/c1ccc(Cl)cc1)CCC2 (configuration not stated)	OVCAR-4 ovarian	0 (no)
COc1ccc2nc(Cl)c(Cn3nnc(Cc4ccccc4)n3)cc2c1	OVCAR-4 ovarian	0 (no)
CC(C)(C)OC(=O)CC(S(=O)(=O)c1ccccc1)S(=O)(=O)c1ccccc1	OVCAR-4 ovarian	0 (no)
COc1ccc(-c2nn(-c3cccc(Cl)c3)cc2-c2cc(-c3cccs3)[nH]c(=S)n2)cc1	OVCAR-4 ovarian	0 (no)
CCN(CC)CCCOc1cccc2c1C(=O)c1cccc(OCCCN(CC)CC)c1C2=O	OVCAR-4 ovarian	0 (no)
O=C(Nc1ccc2c(O)cc(S(=O)(=O)O)cc2c1)c1ccc([N+](=O)[O-])cc1	OVCAR-4 ovarian	0 (no)
O=C(Nc1nc(-c2ccccc2)nc2c1sc(=S)n2-c1ccccc1)C(F)(F)F	OVCAR-4 ovarian	0 (no)
CN(C)c1nc(N)c2nccnc2n1	OVCAR-4 ovarian	0 (no)
CC(=O)COc1ccc(Cl)cc1Cl	OVCAR-4 ovarian	0 (no)
CCCCC/C=C/C/C=C/CCCCCCCC1=NC(C)(C)CN1C(C)C	OVCAR-4 ovarian	0 (no)
N#Cc1cnn(C(=O)c2nn(-c3ccc(Cl)cc3)cc2O)c1N	OVCAR-4 ovarian	0 (no)
O=C(Nc1ccc(F)cc1)c1cc2ccccc2cc1O	OVCAR-4 ovarian	0 (no)
CN1CCN(CCCn2c(=O)c3sc4ncccc4c3n3nnc(-c4ccccc4)c23)CC1	OVCAR-4 ovarian	1 (yes)
CCc1ccc(-c2ccc(-n3nc(C)c4c(N)nc(Cc5ccccc5)nc43)cc2)cc1	OVCAR-4 ovarian	0 (no)
Cc1ccc(S(=O)(=O)N(C)CCCCCC(=O)O)cc1	OVCAR-4 ovarian	0 (no)
Cn1c2ccccc2c2c3[nH][nH]c(=O)c3c3c4ccccc4[nH]c3c21	OVCAR-4 ovarian	0 (no)

---

Test system: SF-539 CNS
Assay: NCI-60 one-dose screen, 48 h (100 = growth as untreated, 0 = no growth, -100 = all killed)
Details: 10 µM
Compounds without any hit were thinned out: in the full panel of roughly 83,000, 20% have a hit.
growth vs 80%: at or above is TRUE, below is FALSE.

Compound	Test System	Answer Label
CC(=O)Nc1ccc2c(c1)C(=O)c1cccc(C(=O)O)c1-2	SF-539 CNS	TRUE
COc1cccc(-c2nc3sccn3c2-c2cccc(S(C)(=O)=O)c2)c1	SF-539 CNS	TRUE
COc1ccc(-c2nn(-c3cccc(Cl)c3)cc2-c2c(C#N)c(=O)n3[nH]c(-c4ccc(C)cc4)nc3c2C#N)cc1	SF-539 CNS	FALSE
CCC(C)[C@H](NC(C)=O)C(=O)N[C@@H](CCCNC(=N)N)C(=O)N[C@@H](CCCCN)C(=O)N[C@@H](CC1CCC(O)CC1)C(=O)NC(C(=O)N[C@@H](CCSC)C(=O)N[C@@H](CCCNC(=N)N)C(=O)N[C@@]1(C)CCC/C=C\CCC[C@@](C)(C(=O)NC(C(=O)N[C@@H](CCC(=O)O)C(=O)N[C@@H](CC(C)C)C(=O)N[C@H](C(=O)N[C@@H](CCC(=O)O)C(N)=O)C(C)C)[C@@H](C)O)NC(=O)[C@H](CCC(N)=O)NC(=O)[C@H](CC(C)C)NC(=O)[C@H](CC(C)C)NC1=O)[C@@H](C)O (some centres not stated)	SF-539 CNS	TRUE
CC1(C)N=C(N)N=C(N)N1c1cccc(C#N)c1	SF-539 CNS	FALSE
COc1ccc(C(=O)CSc2nc(-c3cc(OC)ccc3OC)cc(-c3ccc(OC)cc3)c2C#N)cc1	SF-539 CNS	TRUE
COc1cc2nc(SCC(=O)Nc3cc(OC)c(OC)c(OC)c3)n(Cc3ccccc3)c(=O)c2cc1OC	SF-539 CNS	FALSE
Oc1ccc(-c2[nH]c3ccccc3c2-c2nc3ccccc3o2)cc1	SF-539 CNS	TRUE
COc1ccc(/C=C2\CCCC3C2=Nc2ccccc2NC3c2ccc(OC)cc2)cc1 (configuration not stated)	SF-539 CNS	TRUE
c1cnc2[nH]cc(-c3nc(-c4ccsc4)cs3)c2c1	SF-539 CNS	TRUE
CC(=O)OC1C=CC(OC(C)=O)O1 (configuration not stated)	SF-539 CNS	TRUE
COc1ccccc1-n1c(-c2sc(NC(C)=O)nc2C)n[nH]c1=S	SF-539 CNS	TRUE
O=c1oc2c(cc1-c1ccc(F)cc1)C(O)Oc1ccccc1-2 (configuration not stated)	SF-539 CNS	FALSE
O=C(Nc1nc(-c2ccccc2)nc2c1sc(=S)n2-c1ccccc1)C(F)(F)F	SF-539 CNS	TRUE
O=C(CCNC(=O)c1nc(-c2ccccc2)n(-c2ccc(Cl)cc2)n1)NO	SF-539 CNS	TRUE
Cc1ccc(NC(=O)N2CCCCC2)cc1[N+](=O)[O-]	SF-539 CNS	TRUE

---

Test system: OVCAR-4 ovarian
Experiment: NCI-60 one-dose screen, 48 h (100 = growth as untreated, 0 = no growth, -100 = all killed)
Conditions: 10 µM
This is part of a sample that, as a whole, favours compounds with a hit. Of some 83,000 tested, about 20% had one in any assay.
growth for assorted molecules

Molecule	Test System	U	growth
Oc1cccc(-c2nc3sccn3c2-c2ccncn2)c1	OVCAR-4 ovarian	%	114
CC(C)=CCC/C(C)=C/CC/C(C)=C/CC/C=C(\C)CC/C=C(\C)CCC(=O)Nc1ccn(C2OC(CO)C(O)C2(F)F)c(=O)n1 (centres undefined)	OVCAR-4 ovarian	%	39.9
O=C(Nc1cc(Cl)cc2c1-c1ccc(Cl)cc1C2O)C(Cl)Cl (centres undefined)	OVCAR-4 ovarian	%	62.9
O=C1c2ccccc2C(=O)N1CCCCNc1ccccc1	OVCAR-4 ovarian	%	107
CC[C@@H](C(=O)[C@@H](C)[C@@H](O)[C@H](C)[C@@H]1O[C@@H]([C@@H](CC)C(=O)O)CC[C@@H]1C)C1O[C@]2(C=CC(=O)[C@]3(CC[C@@](C)([C@H]4CC[C@](O)(CC)[C@H](C)O4)O3)O2)[C@H](C)C[C@@H]1C (some centres undefined)	OVCAR-4 ovarian	%	47.7
COc1cc(NC(=O)Nc2cnc(Nc3ccc(N4CCOCC4)cc3)nc2Oc2cccc(OC)c2)cc(OC)c1	OVCAR-4 ovarian	%	13.7
C1CN(CC2CCC(CN3CCOCC3)O2)CCO1 (centres undefined)	OVCAR-4 ovarian	%	107
CC(C)[N+]1(C)C2CC[C@@H]1CC(OC(=O)C(CO)c1ccccc1)C2 (some centres undefined)	OVCAR-4 ovarian	%	110
COc1cc(/C=C/c2cc(/C=C/c3ccc(O)c(OC)c3)n(C(=O)Nc3ccccc3Cl)n2)ccc1O	OVCAR-4 ovarian	%	6.59
COc1cc(OC)c2c(=O)c(O)c(-c3ccccc3)oc2c1	OVCAR-4 ovarian	%	65.3
CC(C)(C)c1ccc(S(=O)(=O)N[C@H]2CC[C@H]3[C@@H]4CCc5cc(OS(=O)(=O)O)ccc5[C@H]4CC[C@]23C)cc1	OVCAR-4 ovarian	%	53.4
Cc1ccc(C(=O)C2C(=O)C3CCC2C3)cc1 (centres undefined)	OVCAR-4 ovarian	%	102
CCn1cc(C(=O)O)c(=O)c2cc(F)c(N3CCNCC3)cc21	OVCAR-4 ovarian	%	111
CC1C(=NC(=O)c2cnccn2)C(C)C(c2ccc(Cl)cc2)NC1c1ccncc1 (centres undefined)	OVCAR-4 ovarian	%	122
CN1CCN(C2=Nc3ccccc3Oc3ccc(Cl)cc32)CC1	OVCAR-4 ovarian	%	84.3
C/C(=C/CCC(C)[C@@H]1CC[C@]2(C)C3=C(CC[C@@]12C)[C@@]1(C)CCC(=O)C(C)(C)[C@@H]1CC3)C(=O)O (some centres undefined)	OVCAR-4 ovarian	%	-70.2
O=C(CC(CC(=O)c1ccccc1)c1ccccc1O)c1ccccc1	OVCAR-4 ovarian	%	91.2
COc1cc2c3c(n(C4CCN(C)CC4)c(=O)c2cc1OC)-c1cc2c(cc1C3=O)OCO2	OVCAR-4 ovarian	%	84.9
CCOC(=O)c1cc(C(=O)c2cc(OC)cc(OC)c2)n2ncc3ccccc3c12	OVCAR-4 ovarian	%	-18

Source of measurements: PubChem BioAssay (NCI)
